From: ChEMBL document CHEMBL5584343

# System: Acinetobacter baumannii
# Assay Procedure: Selectivity ratio of MIC95 for antibacterial activity against Acinetobacter baumannii ATCC19606 in the presence of 10% human serum to MIC95 for antibacterial activity against Acinetobacter baumannii ATCC19606
# Type: functional
Outcome Measure: Selectivity ratio
When you answer, write just the number.

In plain terms, O=C(O)c1cc(CN2CC(Oc3ccc(NS(=O)(=O)c4ccc(-c5ccc(F)cc5)s4)c(C(=O)O)c3)C2)ccc1NS(=O)(=O)CCc1ccc(Cl)cc1 has a documented Selectivity ratio of 130

In plain terms, O=C(O)c1cc(CN2CC(Oc3ccc(NS(=O)(=O)c4ccc(-c5ccc(F)cc5)s4)c(C(=O)O)c3)C2)ccc1NS(=O)(=O)c1cnn(-c2ccc(Cl)cc2)c1 has a documented Selectivity ratio of 64

In plain terms, O=C(O)c1cc(CN2CC(Oc3ccc(NS(=O)(=O)c4cnn(-c5ccc(F)cc5)c4)c(C(=O)O)c3)C2)ccc1NS(=O)(=O)c1cnn(-c2ccc(F)cc2)c1 has a documented Selectivity ratio of 23

In plain terms, C[C@@H]1[C@H](Oc2ccc(NS(=O)(=O)c3cnn(-c4ccc(Cl)cc4)c3)c(C(=O)O)c2)CN1Cc1ccc(NS(=O)(=O)c2cnn(-c3ccc(Cl)cc3)c2)c(C(=O)O)c1 (racemic) has a documented Selectivity ratio of 128

In plain terms, O=C(O)c1cc(CN2CC(COc3ccc(NS(=O)(=O)c4cnn(-c5ccc(Cl)cc5)c4)c(C(=O)O)c3)C2)ccc1NS(=O)(=O)c1cnn(-c2ccc(Cl)cc2)c1 has a documented Selectivity ratio of 32

In plain terms, O=C(O)c1cc(CN2CC(Oc3ccc(NS(=O)(=O)c4ccc(-c5ccc(F)cc5)s4)c(C(=O)O)c3)C2)ccc1NS(=O)(=O)c1cnn(-c2ccc(F)cc2)c1 has a documented Selectivity ratio of 260

In plain terms, O=C(O)c1cc(CN2CC(Oc3ccc(NS(=O)(=O)c4ccc(-c5ccc(F)cc5)cc4)c(C(=O)O)c3)C2)ccc1NS(=O)(=O)c1cnn(-c2ccc(F)cc2)c1 has a documented Selectivity ratio of 64

In plain terms, O=C(O)c1cc(CN[C@H]2C[C@@H](NCc3ccc(NS(=O)(=O)c4cnn(-c5ccc(Cl)cc5)c4)c(C(=O)O)c3)C2)ccc1NS(=O)(=O)c1cnn(-c2ccc(Cl)cc2)c1 has a documented Selectivity ratio of 16

In plain terms, O=C(O)c1cc(CNC2CN(Cc3ccc(NS(=O)(=O)c4cnn(-c5ccc(Cl)cc5)c4)c(C(=O)O)c3)C2)ccc1NS(=O)(=O)c1cnn(-c2ccc(Cl)cc2)c1 has a documented Selectivity ratio of 8
